TARGET UNDER TEST: WNK3 (h) (Homo sapiens)
Sequence (Q9BYP7 whole entry): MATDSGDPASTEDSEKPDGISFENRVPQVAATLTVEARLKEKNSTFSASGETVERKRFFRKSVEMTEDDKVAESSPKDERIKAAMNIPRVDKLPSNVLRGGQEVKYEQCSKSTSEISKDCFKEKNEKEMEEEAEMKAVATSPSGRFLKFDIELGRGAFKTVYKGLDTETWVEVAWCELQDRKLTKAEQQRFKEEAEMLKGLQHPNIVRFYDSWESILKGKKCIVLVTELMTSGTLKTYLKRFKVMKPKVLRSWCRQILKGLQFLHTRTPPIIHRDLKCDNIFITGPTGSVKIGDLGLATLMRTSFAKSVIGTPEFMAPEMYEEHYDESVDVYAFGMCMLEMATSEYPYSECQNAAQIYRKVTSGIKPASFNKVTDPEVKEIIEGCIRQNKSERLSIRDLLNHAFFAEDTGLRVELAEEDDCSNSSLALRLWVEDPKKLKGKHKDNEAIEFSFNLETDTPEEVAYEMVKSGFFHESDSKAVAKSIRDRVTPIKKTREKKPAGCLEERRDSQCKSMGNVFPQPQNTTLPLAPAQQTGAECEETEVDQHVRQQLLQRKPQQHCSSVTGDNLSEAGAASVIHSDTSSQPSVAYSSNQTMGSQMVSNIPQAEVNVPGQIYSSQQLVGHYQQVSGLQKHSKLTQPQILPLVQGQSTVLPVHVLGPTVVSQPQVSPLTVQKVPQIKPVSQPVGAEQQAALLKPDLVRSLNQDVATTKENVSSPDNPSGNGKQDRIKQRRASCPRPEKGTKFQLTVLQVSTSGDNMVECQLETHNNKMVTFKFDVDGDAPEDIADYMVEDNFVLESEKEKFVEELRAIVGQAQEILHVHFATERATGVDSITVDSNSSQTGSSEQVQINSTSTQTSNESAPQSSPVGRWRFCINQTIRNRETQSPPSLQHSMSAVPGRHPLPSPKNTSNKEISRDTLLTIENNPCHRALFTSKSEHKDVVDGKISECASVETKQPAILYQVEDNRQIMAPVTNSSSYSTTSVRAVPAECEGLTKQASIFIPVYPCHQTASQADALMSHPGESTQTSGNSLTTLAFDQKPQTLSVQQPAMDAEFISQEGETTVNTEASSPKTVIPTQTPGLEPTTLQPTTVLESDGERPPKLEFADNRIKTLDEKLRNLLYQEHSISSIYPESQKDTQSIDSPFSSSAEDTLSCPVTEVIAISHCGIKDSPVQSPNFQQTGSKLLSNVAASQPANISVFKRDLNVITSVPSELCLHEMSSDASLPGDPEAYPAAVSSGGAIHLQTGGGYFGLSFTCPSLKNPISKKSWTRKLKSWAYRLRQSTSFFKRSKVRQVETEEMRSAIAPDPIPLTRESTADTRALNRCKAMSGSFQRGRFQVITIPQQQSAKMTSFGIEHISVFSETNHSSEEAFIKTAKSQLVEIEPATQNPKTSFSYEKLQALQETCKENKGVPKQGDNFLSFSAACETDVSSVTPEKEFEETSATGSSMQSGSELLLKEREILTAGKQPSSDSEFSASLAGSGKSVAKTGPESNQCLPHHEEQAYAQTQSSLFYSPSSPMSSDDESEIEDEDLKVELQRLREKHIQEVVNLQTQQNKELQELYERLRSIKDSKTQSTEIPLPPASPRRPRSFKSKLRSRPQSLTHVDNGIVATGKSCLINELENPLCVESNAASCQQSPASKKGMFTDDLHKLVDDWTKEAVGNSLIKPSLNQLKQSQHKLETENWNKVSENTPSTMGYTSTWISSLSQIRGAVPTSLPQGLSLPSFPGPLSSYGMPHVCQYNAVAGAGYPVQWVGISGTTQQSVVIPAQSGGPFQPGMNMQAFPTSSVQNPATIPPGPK
TEST METHOD NOTES: Kinase Profiling Assay
Format: biochemical
SETUP CONDITIONS: 100 μM
READOUT KIND: % activity (%)

[[record]]
residues = "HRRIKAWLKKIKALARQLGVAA (Mammalian) [MMI-0500]"
readout_kind = "% activity"
value = 9

[[record]]
residues = "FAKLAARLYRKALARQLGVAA [MMI-0300]"
readout_kind = "% activity"
value = 77

[[record]]
residues = "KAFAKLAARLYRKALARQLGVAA [MMI-0400]"
readout_kind = "% activity"
value = 74

[[record]]
residues = "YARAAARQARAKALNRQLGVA (Mammalian) [MMI-0200]"
readout_kind = "% activity"
value = 97


---

Known % activity of a selection of sequences
TARGET UNDER TEST: Ron (h) (Homo sapiens, UniProt Q04912)
TEST METHOD NOTES: Kinase Profiling Assay
Assay type: biochemical
SETUP CONDITIONS: 100 μM
READOUT KIND: % activity (%)

[[record]]
residues = "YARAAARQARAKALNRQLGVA (Mammalian) [MMI-0200]"
readout_kind = "% activity"
value = 120

[[record]]
residues = "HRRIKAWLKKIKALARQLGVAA (Mammalian) [MMI-0500]"
readout_kind = "% activity"
value = 46

[[record]]
residues = "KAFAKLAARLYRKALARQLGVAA [MMI-0400]"
readout_kind = "% activity"
value = 79

[[record]]
residues = "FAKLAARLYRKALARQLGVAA [MMI-0300]"
readout_kind = "% activity"
value = 93


---

Known % activity of a selection of sequences
TARGET UNDER TEST: Pyk2 (h) (Homo sapiens)
Sequence (Q14289 whole entry): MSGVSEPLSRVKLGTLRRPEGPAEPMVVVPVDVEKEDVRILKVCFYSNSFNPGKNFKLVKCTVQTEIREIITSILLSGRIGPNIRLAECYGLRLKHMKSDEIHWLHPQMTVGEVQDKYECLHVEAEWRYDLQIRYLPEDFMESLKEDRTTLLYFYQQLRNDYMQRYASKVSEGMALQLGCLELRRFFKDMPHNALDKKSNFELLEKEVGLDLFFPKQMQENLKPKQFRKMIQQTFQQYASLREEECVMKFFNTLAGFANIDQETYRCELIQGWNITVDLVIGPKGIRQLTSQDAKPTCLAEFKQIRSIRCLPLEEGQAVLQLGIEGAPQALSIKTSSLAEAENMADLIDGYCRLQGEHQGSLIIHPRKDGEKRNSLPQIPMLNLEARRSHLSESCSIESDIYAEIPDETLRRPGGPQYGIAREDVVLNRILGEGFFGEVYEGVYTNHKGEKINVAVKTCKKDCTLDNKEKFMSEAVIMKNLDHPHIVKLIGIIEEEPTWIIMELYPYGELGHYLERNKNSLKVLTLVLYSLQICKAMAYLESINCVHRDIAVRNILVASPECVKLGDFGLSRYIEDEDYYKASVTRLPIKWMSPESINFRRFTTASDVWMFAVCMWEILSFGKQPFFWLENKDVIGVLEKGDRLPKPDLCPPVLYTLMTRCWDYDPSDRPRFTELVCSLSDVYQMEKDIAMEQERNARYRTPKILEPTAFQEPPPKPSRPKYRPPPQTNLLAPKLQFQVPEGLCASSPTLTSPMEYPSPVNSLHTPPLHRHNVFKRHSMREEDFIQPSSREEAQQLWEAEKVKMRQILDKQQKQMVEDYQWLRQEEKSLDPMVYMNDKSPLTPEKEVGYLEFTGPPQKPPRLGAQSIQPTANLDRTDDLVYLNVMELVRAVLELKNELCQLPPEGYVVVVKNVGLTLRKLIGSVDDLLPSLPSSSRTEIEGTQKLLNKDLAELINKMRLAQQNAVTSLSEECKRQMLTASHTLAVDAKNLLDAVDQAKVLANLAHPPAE
TEST METHOD NOTES: Kinase Profiling Assay
Format: biochemical
SETUP CONDITIONS: 100 μM
Method: Every kinase activity measurement was conducted in duplicate. Specifically, in these assays, a positively charged substrate is phosphorylated with a radiolabeled phosphate group from an ATP if the kinase is not inhibited by an inhibitor peptide. The positively charged substrate then is attracted to a negatively charged filter membrane, quantified with a scintillation counter, and compared to a 100% activity control. […]
READOUT KIND: % activity (%)

[[record]]
residues = "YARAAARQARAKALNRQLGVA (Mammalian) [MMI-0200]"
value = 127

[[record]]
residues = "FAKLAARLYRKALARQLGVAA [MMI-0300]"
value = 47

[[record]]
residues = "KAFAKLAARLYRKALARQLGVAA [MMI-0400]"
value = 34

[[record]]
residues = "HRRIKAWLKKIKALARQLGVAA (Mammalian) [MMI-0500]"
value = 46


---

TARGET UNDER TEST: GRK6 (h) (Homo sapiens, UniProt P43250)
Construct: purchased Millipore
Sequence (P43250 whole entry): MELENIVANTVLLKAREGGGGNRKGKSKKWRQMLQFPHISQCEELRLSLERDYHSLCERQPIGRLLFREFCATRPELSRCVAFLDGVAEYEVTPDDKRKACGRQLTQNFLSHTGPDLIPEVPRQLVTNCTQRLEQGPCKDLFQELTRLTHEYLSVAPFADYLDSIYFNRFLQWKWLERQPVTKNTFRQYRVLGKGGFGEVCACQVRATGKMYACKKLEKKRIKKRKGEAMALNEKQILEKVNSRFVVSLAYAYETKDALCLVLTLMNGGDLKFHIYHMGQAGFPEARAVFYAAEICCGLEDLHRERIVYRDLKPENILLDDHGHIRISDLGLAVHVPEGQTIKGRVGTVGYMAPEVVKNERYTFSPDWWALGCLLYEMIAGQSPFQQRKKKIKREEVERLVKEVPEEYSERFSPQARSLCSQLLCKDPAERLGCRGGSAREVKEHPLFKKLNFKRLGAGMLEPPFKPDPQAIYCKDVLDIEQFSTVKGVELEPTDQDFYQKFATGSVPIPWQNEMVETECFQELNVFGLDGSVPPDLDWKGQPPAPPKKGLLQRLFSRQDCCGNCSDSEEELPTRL
TEST METHOD NOTES: Kinase Profiling Assay
Type: biochemical
SETUP CONDITIONS: 100 μM
Known % activity of a selection of sequences
READOUT KIND: % activity (%)

[[record]]
residues = "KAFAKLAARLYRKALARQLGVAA [MMI-0400]"
target_under_test = "GRK6 (h) (Homo sapiens, UniProt P43250)"
readout_kind = "% activity"
units = "%"
value = 141

[[record]]
residues = "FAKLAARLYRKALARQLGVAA [MMI-0300]"
target_under_test = "GRK6 (h) (Homo sapiens, UniProt P43250)"
readout_kind = "% activity"
units = "%"
value = 147

[[record]]
residues = "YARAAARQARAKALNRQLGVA (Mammalian) [MMI-0200]"
target_under_test = "GRK6 (h) (Homo sapiens, UniProt P43250)"
readout_kind = "% activity"
units = "%"
value = 132

[[record]]
residues = "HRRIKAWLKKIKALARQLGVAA (Mammalian) [MMI-0500]"
target_under_test = "GRK6 (h) (Homo sapiens, UniProt P43250)"
readout_kind = "% activity"
units = "%"
value = 174

